- Test system: U251 CNS
- ASSAY COMMENT: NCI tumour cell line growth inhibition, 48 h
READOUT KIND: TGI (µM)
Give just the number in µM; leave the unit off.

NC(=O)CCSC(CC(=O)c1ccc(Cl)cc1)c1ccc(Cl)cc1 (stereo not given): 34.5

Looking for the measured TGI of C=CC(=O)Nc1cccc(Oc2nc(Nc3ccc(N4CCN(C)CC4)cc3OC)ncc2Cl)c1 , can you help?
3.03

* * *

- Test system: UACC-257 melanoma
- ASSAY COMMENT: NCI tumour cell line growth inhibition, 48 h
Parameter GI50: see the listing below.

Below: 2 molecules and their reported GI50.
O=[N+]([O-])c1ccc2c(c1)C(c1ccccc1Cl)=Nc1c(n[nH]c1-c1cccnc1)N2: > 25 µM
CNC(=O)c1cccc(C#Cc2cncnc2Nc2ccc(OCc3cccc(F)c3)c(Cl)c2)c1: 9.72 µM

Query (molecule): O=C1c2cc(F)ccc2-c2c1c1ccc([N+](=O)[O-])cc1c(=O)n2CCCBr ; field requested: GI50
13.1 µM

Given the entry CN(C)C=Nc1c(I)cc(I)c(CCC(=O)O)c1I , report its measured GI50.
> 100 µM

Give the measured GI50 of COC(=O)CNc1nc(N(C)O)nc(N(C)O)n1 .
11.6 µM

Requested read-out: GI50. Entry: NC(=O)c1cc(Br)ccc1NC(=O)/C=C/c1ccccc1
24.9 µM

If you can, please state the reported GI50 value of Cn1c(-c2c(N)n(Cc3ccc(F)cc3)c3nc(C#N)c(C#N)nc23)nc2ccccc21 .
4.51 µM

I would be grateful if you could share the reported GI50 for C/C=C(\C)C(=O)O[C@H]1C=CC(=O)O[C@H]1COC(=O)[C@H](C)O .
14.7 µM

Quick one: GI50 of N#CC1=C(N)Oc2c(sc3c(Br)cccc23)C1c1ccc(Cl)cc1 (stereo not given) ?
1.73 µM

Requested read-out: GI50. Entry: CC[PH+](CC)CC.CC[PH+](CC)CC.[Au]
11.4 µM

Each recorded value in this set is attributed to PubChem BioAssay (NCI).
